# self-cleavage kobs at 640 uM GlcN6P per entry
B1: glmS ribozyme (parent)
chain: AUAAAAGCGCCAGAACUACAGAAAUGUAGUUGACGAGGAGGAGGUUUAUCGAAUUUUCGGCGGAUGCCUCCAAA

# Variants of: B1
# methodSummary: self-cleavage kobs at 640 uM GlcN6P; higher = faster cleavage; RNA array
# testSettings: with glucosamine-6-phosphate
Fewer inactive variants are shown than the library holds.
Use s⁻¹ as the unit, but write only the number.

Recorded self-cleavage kobs at 640 uM GlcN6P, per entry:
sequenceCode	readoutUnits	self-cleavage kobs at 640 uM GlcN6P
AUAAAAGCGCCAGAACUACAGAAAUGUAGUUGAGGAGGAGGAGGUUGAUCGAAUUUUCGGCGGAUGCGUCCAAA	s⁻¹	8.76e-05
AUAAAAGCGCCAGAACUACAGAAAUGUAGUUGACGAGGAGGAGGUUUAUCGAAUUUUCGGCGGAUGCCUUGAAA	s⁻¹	8.39e-05
AUAAAAGCGCCAGAACUACAGAAAUGUAGUUGACGAGGAGUAGGUUUAUCGAAUUUUCGGCGGAUACCUCCAAA	s⁻¹	0.000701
AUAAAAGCGCCCGAACUACAGAAAUGUAGUUGACGAGGAGGAGGUUUAGCGAAUUUUCGGCGGAUGCCUCCAAA	s⁻¹	8.81e-05
AUAAAAGCGCCACAACUACAGAAAUGUAGUUCACGAGGAGGAGGUUUAUCGAAUUUUCGGCGGAUGCCUCCAAA	s⁻¹	0.000109
AUAAAAGCGCCAGAGGUACAGAAAUGUAGUUGACGAGGAGGAGGUGUAUCGAAUUUUCGGCGGAUGCCUCCAAA	s⁻¹	9.78e-05
AUAAAAGCGCCAGAACUACAGAAAUGUAAUUGACGAGGACGAGGUUUAUCGAAUUUUCGGCGGAUGCCUCCAAA	s⁻¹	5.68e-05
AUAAAAGCGCCAGAACUACAGAAAUGUAGUUGACGAGGUGGAGGUUUAUCGAAUUAUCGGCGGAGGCCUCCAAA	s⁻¹	0.000165

QUERY: Which self-cleavage kobs at 640 uM GlcN6P value belongs to `AUAAAAGCGCCAGAACUACAGAAAUGUAGUUGACGAGGAGGAGGUUUAUCGAUUUUUCGGCGGAUGCCCCCAAA` ?
RESULT: 0.00104
